Assay: chemical genetic growth profiling, strain panel (AID 1159580);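 also: tested at 20 µM; growth read once vehicle control cultures reached saturation at 30 °C; 1 = growth at the plate median or of vehicle wells; lower values mean less growth of the strain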
Conditions: S. cerevisiae deletion strains, growth OD, locus YJR016C, strain ILV3, stronger effect = lower value
Hit rate of the full screen: of about 5,500 compounds, about 2,000 (36%) were called active. About 18% were inconclusive and are not listed. The list shows a part of the results.
Please provide measured normalized growth for the entries that follow.
One number for each entry.

Give measured normalized growth for every item shown.
1. O=[N+]([O-])c1ccc(NCc2ccc(Cl)c(Cl)c2)nc1
2. COC(=O)c1cc(I)c(OC(C)=O)c(I)c1
3. Cc1csc2c(N3CCN(C(=S)Nc4ccc(C(F)(F)F)cc4)CC3)ncnc12
4. Cc1cc(Sc2c([N+](=O)[O-])cc(C(F)(F)F)cc2[N+](=O)[O-])c(Cl)cc1Cl

[0.939, 0.959, 0.993, 1]

Give measured normalized growth for every item shown.
1. COC(=O)c1cc([N+](=O)[O-])ccc1S(=O)(=O)Cc1ccc(Cl)cc1
2. Cc1csc2ncnc(N3CCN(C(=S)Nc4ccc(C(F)(F)F)cc4)CC3)c12
3. Cn1ncc(-c2nc(-c3ccc(Cl)cc3)cs2)c1N
4. N/C(=N/OCc1c(F)cccc1Cl)c1ccc(Cl)cc1
5. Cc1cc2nc3c(Cl)c(O)c4ccccc4c3nc2cc1C
6. COc1ccc(Oc2ccc([N+](=O)[O-])cc2C(=O)O/N=C(/N)c2ccc(C(F)(F)F)cc2)cc1
7. NNC(=O)c1oc2nc(-c3ccccc3)cc(-c3ccccc3)c2c1N
8. C=CCC1C(=O)N(S(=O)(=O)c2ccc(Cl)cc2)N=C1CCC (configuration not stated)

1. 0.993
2. 0.995
3. 0.934
4. 0.929
5. 0.955
6. 1
7. 0.98
8. 0.994
